Data credit: patent US12588678B2

We begin with a simple list: items and their reported mortality at 10 µg/mL.
# Test system: Tetranychus cinnabarinus mite eggs
# MEASUREMENT_DESCRIPTION: Activity against mite eggs, dipping method on bean seedling leaves
# Assay type: in vivo
# COND: Tetranychus cinnabarinus, 96 h, read-out: mortality of mite eggs (%), 10 mg/L; checked after 4 days

{"MOLECULE": "Fc1cccc(F)c1C1=NC(c2ccc(Cn3ccc4cc(Cl)ccc43)cc2)CO1 (stereo not shown)", "mortality at 10 µg/mL": "75%"}
{"MOLECULE": "CCOc1cc(C(C)(C)C)ccc1C1COC(c2c(F)cccc2F)=N1 (stereo not shown) [Etoxazole, reference compound]", "mortality at 10 µg/mL": "90%"}
{"MOLECULE": "O=S(=O)(Oc1ccc(C2COC(c3c(F)cccc3F)=N2)cc1)c1ccc(I)cc1 (stereo not shown)", "mortality at 10 µg/mL": "85%"}
{"MOLECULE": "Cc1ccc2c(ccn2Cc2ccc(C3COC(c4c(F)cccc4F)=N3)cc2)c1 (stereo not shown)", "mortality at 10 µg/mL": "70%"}
{"MOLECULE": "Fc1cccc(F)c1C1=NC(c2ccc(Cn3ccc4ccccc43)cc2)CO1 (stereo not shown)", "mortality at 10 µg/mL": "100%"}
{"MOLECULE": "Fc1cccc(F)c1C1=NC(c2ccc(COCC#Cc3ccccc3)cc2)CO1 (stereo not shown)", "mortality at 10 µg/mL": "90%"}
{"MOLECULE": "O=C1c2ccccc2C(=O)N1Cc1ccc(C2COC(c3c(F)cccc3F)=N2)cc1 (stereo not shown)", "mortality at 10 µg/mL": "90%"}
{"MOLECULE": "Fc1cccc(F)c1C1=NC(c2ccc(Cn3cccc3)cc2)CO1 (stereo not shown)", "mortality at 10 µg/mL": "45%"}
{"MOLECULE": "N#Cc1ccc(S(=O)(=O)Oc2ccc(C3COC(c4c(F)cccc4F)=N3)cc2)cc1 (stereo not shown)", "mortality at 10 µg/mL": "70%"}
{"MOLECULE": "Fc1cccc(F)c1C1=NC(c2ccc(CN3CCCCCCC3)cc2)CO1 (stereo not shown)", "mortality at 10 µg/mL": "70%"}
